settings: buffer; pH 7.4; 200.0 µM
QUANTITY_MEASURED: solubility kinetic (µg/mL)
Lab book: enter the figure in µg/mL, no units written.

Could you share which solubility kinetic value was measured for "Oc1cc2c(cc1CN1CCN(c3ccccc3)CC1)OCO2" ? 17.6

Could you share which solubility kinetic value was measured for "Cn1c(SCc2ccccc2Cl)nc2c1c(=O)[nH]c(=O)n2C" ? 0.4

Could you share which solubility kinetic value was measured for Cc1ccc(C(=O)COC(=O)CN2C(=O)C3C4CCC(C4)C3C2=O)cc1C (stereo not given) ? 46.2

Could you share which solubility kinetic value was measured for Cc1cc(C)cc(NC(=S)N2CC(C)OC(C)C2)c1 (stereo not given) ? 35.1

Could you share which solubility kinetic value was measured for "O=[N+]([O-])c1ccc(N2CCCCC2)cc1" ? 19.9

Could you share which solubility kinetic value was measured for CC1CCCN(S(=O)(=O)c2ccc([N+](=O)[O-])cc2)C1 (stereo not given) ? 2.9

Could you share which solubility kinetic value was measured for "CNc1oc(-c2cccs2)nc1S(=O)(=O)c1ccccc1" ? 4.2

Could you share which solubility kinetic value was measured for "CSc1ccccc1NC(=S)NCc1ccc(Cl)cc1" ? 2.5

Could you share which solubility kinetic value was measured for "Cc1nc(/C(N)=N/OC(=O)c2ccccc2Cl)c(C(F)(F)F)o1" ? 35.8

Could you share which solubility kinetic value was measured for CC(CCc1ccccc1)NC(=O)CC(C)c1ccccc1 (stereo not given) ? 43.4

Could you share which solubility kinetic value was measured for "S=C(NCc1ccccc1)Nc1cccc2ccccc12" ? 3.8

Could you share which solubility kinetic value was measured for "Cc1ccc(OCCC(=O)OCC(=O)Nc2ccccc2)cc1" ? 16.5

Could you share which solubility kinetic value was measured for CCOP(=O)(OCC)C(O)c1cccc([N+](=O)[O-])c1 (stereo not given) ? 39.2

Could you share which solubility kinetic value was measured for "C=CCN(c1ccccc1OC)S(=O)(=O)c1cccc(C(=O)NC2=NCCS2)c1" ? 7.4

Could you share which solubility kinetic value was measured for Cc1cccc(NC(=O)C(C)C(=O)c2ccccc2)c1 (stereo not given) ? 8.5

Could you share which solubility kinetic value was measured for CC(NCc1ccccc1)c1ccccc1O (stereo not given) ? 27.2

Could you share which solubility kinetic value was measured for "Cc1cc(NC(=O)CN2C(=O)c3ccccc3C2=O)no1" ? 37.9

Could you share which solubility kinetic value was measured for "Cc1ccnc(NC(=O)COC(=O)C23CC4CC(CC(C4)C2)C3)n1" ? 8.7

###

Would you kindly list solubility kinetic for each of these molecules?
conditions: buffer; pH 7.4; 200.0 µM
Lab book: enter the figure in µg/mL, no units written.

Could you share which solubility kinetic value was measured for CN(Cc1nc(-c2cccs2)no1)CC(O)c1ccccc1 (centres undefined) ? 42.8

Could you share which solubility kinetic value was measured for "NC(=O)CSc1nc2ccccc2c(=O)n1Cc1ccccc1" ? 2.5

Could you share which solubility kinetic value was measured for "CC(=O)Nc1nc(-c2ccccc2)cc(-c2ccco2)c1C#N" ? 2

Could you share which solubility kinetic value was measured for Cl.OC(COCCC12CC3CC(CC(C3)C1)C2)CN1CCCC1 (centres undefined) ? 42.3

Could you share which solubility kinetic value was measured for Cc1ccc(C(=O)OC(C)C(=O)NC2CCCCC2C)s1 (centres undefined) ? 14.6

Could you share which solubility kinetic value was measured for "COc1ccc(NC(=O)CS(=O)(=O)c2ccc(F)cc2)cc1" ? 46.9

Could you share which solubility kinetic value was measured for CCC1CCC2(CC1)NC(=O)N(CC(=O)NCc1ccccc1Cl)C2=O (centres undefined) ? 19.9

Could you share which solubility kinetic value was measured for "Nc1ccc(N2CCOCC2)c(S(=O)(=O)Nc2ccccc2Cl)c1" ? 31.7

Could you share which solubility kinetic value was measured for CCc1ccc(N2C(=O)C3C4C=CC(CC4)C3C2=O)cc1 (centres undefined) ? 14.3

Could you share which solubility kinetic value was measured for O=C1CSC(c2ccccc2)N1c1ccc(F)cc1F (centres undefined) ? 38

Could you share which solubility kinetic value was measured for "Cc1ccc2c(N)c(C(=O)c3ccccc3)sc2n1" ? 3.1

Could you share which solubility kinetic value was measured for "COc1cccc(NC(=O)Nc2ccc3c(c2)CCC3)c1" ? 0.3

Could you share which solubility kinetic value was measured for "N#C/C(=C\c1ccc(O)c(O)c1)C(=O)Nc1cccc2ncccc12" ? 20

Could you share which solubility kinetic value was measured for "CC(=O)c1cn(CC(=O)Nc2ccccc2F)c2ccccc12" ? 9.4

Could you share which solubility kinetic value was measured for "O=C(CCc1ccccc1)NCC1(c2ccccc2)CCCC1" ? 23.8

Could you share which solubility kinetic value was measured for "O=C(Nc1cccc(Cl)c1)Nc1ccc2nccnc2c1" ? 1.7

###

conditions: buffer; pH 7.4; 200.0 µM
Would you kindly list solubility kinetic for each of these compounds?
Lab book: enter the figure in µg/mL, no units written.

Could you share which solubility kinetic value was measured for "CN(C)CCOc1cccc(Br)c1.O=C(O)C(=O)O" ? 44.6

Could you share which solubility kinetic value was measured for "COC(=O)CSc1nc(N2CCOCC2)c2c(c1C#N)CCCC2" ? 25.6

Could you share which solubility kinetic value was measured for "O=C(/C=C/Nc1ccc(S(=O)(=O)Nc2ncccn2)cc1)c1ccc2ccccc2c1" ? 2

Could you share which solubility kinetic value was measured for "N#C/C(=C\c1ccccc1O)C(=O)Nc1cccnc1" ? 2.6

Could you share which solubility kinetic value was measured for "O=C1NC(=Nc2cccc(O)c2)S/C1=C\c1cccnc1" ? 1.2

Could you share which solubility kinetic value was measured for "CC(C)c1ccc(NC(=O)/C(C#N)=C/c2ccncc2)cc1" ? 4.6

Could you share which solubility kinetic value was measured for "N#C/C=C/N1CCC(Cc2ccccc2)CC1" ? 29.6

Could you share which solubility kinetic value was measured for "O=[N+]([O-])c1ccc(SCc2ccncc2)nc1" ? 30.5

Could you share which solubility kinetic value was measured for "CC(=O)c1c(C)n(Cc2ccccc2)c2ccc(O)cc12" ? 0.7

Could you share which solubility kinetic value was measured for "Cc1cc(C)c2ccc(/C=N/O)nc2c1O" ? 2.8

Could you share which solubility kinetic value was measured for "COc1cc(C)cc(CN2CC=C(c3ccccc3)CC2)c1O" ? 12.8

###

settings: buffer; pH 7.4; 200.0 µM
Would you kindly list solubility kinetic for each of these molecules?
Lab book: enter the figure in µg/mL, no units written.

Could you share which solubility kinetic value was measured for "CC(=O)Nc1ccccc1C(=O)C(=O)Nc1ccc(F)c(Cl)c1" ? 2.4

Could you share which solubility kinetic value was measured for "COc1ccccc1C(=O)NCCNc1ccc([N+](=O)[O-])cc1Cl" ? 0.7

Could you share which solubility kinetic value was measured for "CCOc1ccc(N/C(N)=N/c2nc(C)c(C)c(=O)[nH]2)cc1" ? 2.3

Could you share which solubility kinetic value was measured for "N#C/C(=C\c1ccc2c(c1)OCCO2)C(=O)Nc1nccs1" ? 28.8

###

conditions: buffer; pH 7.4; 200.0 µM
QUANTITY_MEASURED: solubility kinetic

Could you share which solubility kinetic value was measured for "O=C(CSCc1ccc(C(=O)O)cc1)Nc1ccc2ccccc2c1" ? > 52.7 µg/mL

Could you share which solubility kinetic value was measured for "Cc1cc(C)c(C(=O)NCCCN2CCOCC2)c(C)c1" ? > 43.6 µg/mL

Could you share which solubility kinetic value was measured for "CCOC(=O)Cc1csc(SCC(=O)N2CCN(c3ccccc3)CC2)n1" ? > 60.8 µg/mL

Could you share which solubility kinetic value was measured for "O=[N+]([O-])c1ccc(O)c([N+](=O)[O-])c1" ? > 27.6 µg/mL

Could you share which solubility kinetic value was measured for "CS(=O)(=O)N(CC(=O)Nc1ccc(Br)cc1F)C1CCCCC1" ? > 61.1 µg/mL

###

Would you kindly list solubility kinetic for each of these molecules?
conditions: buffer; pH 7.4; 200.0 µM

Could you share which solubility kinetic value was measured for "c1ccc(-c2cc(NCCN3CCCCC3)c3ccccc3n2)cc1" ? > 49.7 µg/mL

Could you share which solubility kinetic value was measured for "O=C(CSc1ncccn1)N1CCCc2ccccc21" ? > 42.8 µg/mL

Could you share which solubility kinetic value was measured for CCS(=O)(=O)C(C)(CCl)C(=O)Nc1ccc(C(=O)OC)cc1 (stereo unspecified) ? > 52.2 µg/mL

Could you share which solubility kinetic value was measured for CC(=O)c1ccc(N2CCN(CC(O)c3ccccc3)CC2)cc1 (stereo unspecified) ? > 48.7 µg/mL

Could you share which solubility kinetic value was measured for "COc1ccc(Nc2cc(Nc3ccccc3)ncn2)cc1" ? < 0.2 µg/mL

Could you share which solubility kinetic value was measured for "COc1ccc(N2CCN(C(=O)CCc3ccccc3)CC2)cc1" ? > 48.7 µg/mL

Could you share which solubility kinetic value was measured for "Cc1nc(C)n(CC(=O)c2ccc(Cl)cc2Cl)n1" ? > 42.6 µg/mL

Could you share which solubility kinetic value was measured for "CN1CCN(C=Nc2nc3ccccc3nc2N2CCCC2)CC1" ? > 48.7 µg/mL

Could you share which solubility kinetic value was measured for "CCN(CC(=O)Nc1ccccc1OC)C(=O)CC1CCCC1" ? > 47.8 µg/mL

Could you share which solubility kinetic value was measured for CC1(c2ccc(NC(=O)c3ccccc3F)cc2)CC1(Cl)Cl (stereo unspecified) ? < 0.7 µg/mL

Could you share which solubility kinetic value was measured for "Cc1ccc(NC(=O)CSc2ncccn2)cc1S(=O)(=O)N1CCOCC1" ? > 61.3 µg/mL
